TARGET: human GLP-1 receptor (human, UniProt P43220 24-463)
EXPERIMENT DESCRIPTION: cell-based or functional assay
Starred links: 1 amine or outer side, 2 acyl side, 3 side chain; linkers in the order of their positions; H or OH if unused. Non-standard residues stand in square brackets, D forms with d. Groups on a side chain read outwards from the residue. No end group written: not given here. *: point of attachment. C5N3 = 5-azido pentinoic acid, [N-]=[N+]=NCCCCC(=O)*; Lys(N3) = [N-]=[N+]=NCCCC[C@H](N)C(=O)O; γGlu = O=C(O)[C@H](CCC(=O)[*:2])N[*:1]; Palmitoyl = CCCCCCCCCCCCCCCC(=O)*; AEEA = NCCOCCOCC(=O)O; Aib = CC(C)(N)C(=O)O
For each entry below, report its hGLP1R EC50 (cAMP activity assay) value.
Please respond with the number in pM and leave the unit unwritten.

Look up hGLP1R EC50 (cAMP activity assay) for this binder: H[Aib]QGTFTSDK([γGlu-γGlu-Palmitoyl])SKYLD[Aib]RAAQDFVQWLLDTKK([AEEA-C5N3])-NH2 [PEP20] 50

Look up hGLP1R EC50 (cAMP activity assay) for this binder: HXQGTFTSDKSKYLDERAAQXFVXWLXDT (D-Ser (s) at 2; Lys 10 K(γEγEC16); alpha-methyl-L-Asp (αMD) at 21; Nle(εN3) at 24; L-methionine sulphone (2) at 27; C-terminal amide) [PEP34] 50

Look up hGLP1R EC50 (cAMP activity assay) for this binder: HXEGTFTSDKSKYLDERAAQDFVXWLLDT (D-Ser (s) at 2; Lys 10 K(γEγEC16); Nle(εN3) at 24; C-terminal amide) [PEP75] 70

Look up hGLP1R EC50 (cAMP activity assay) for this binder: H[dS]QGTFTSDKSKYLDERAA[Lys(N3)]DFVQWLLDT-NH2 [PEP71] 60

Look up hGLP1R EC50 (cAMP activity assay) for this binder: HXQGTFTSDKSKYLDERAAQDXVXWLXDT (D-Ser (s) at 2; Lys 10 K(γEγEC16); alpha-methyl-L-Phe (αMF) at 22; Nle(εN3) at 24; L-methionine sulphone (2) at 27; C-terminal amide) [PEP35] 50

Look up hGLP1R EC50 (cAMP activity assay) for this binder: HXQGTFTSDKSKYLDERAAQDFVXWLLDT (D-Ser (s) at 2; Lys 10 K(PEG2PEG2γEC18-OH); Nle(εN3) at 24; C-terminal amide) [PEP29] 3280

Look up hGLP1R EC50 (cAMP activity assay) for this binder: HXQGTFTSDKSKYLDERAAQDFVXWLLDT (D-Ser (s) at 2; Lys 10 K(γEγEC16); Nle(εN3) at 24; C-terminal amide) [PEP74] 50

Look up hGLP1R EC50 (cAMP activity assay) for this binder: HXQGTFTSXKSKYLDERAAQDFVXWLXDT (D-Ser (s) at 2; alpha-methyl-L-Asp (αMD) at 9; Lys 10 K(γEγEC16); Nle(εN3) at 24; L-methionine sulphone (2) at 27; C-terminal amide) [PEP32] 40
